This collection of values is drawn from patent US20240043505A1.

Provide the reported Authentic virus PRNT IC50 of each item.
SUBJECT_OF_TEST: SARS-CoV-2 spike glycoprotein on authentic virus (Munich strain) (SARS-CoV-2 (Munich strain), UniProt P0DTC2 14-1273)
ASSAY_DETAILS: cell-based or functional assay
One number for each entry, in nM.

Consider the worked cases shown below.
BINDER	Authentic virus PRNT IC50, nM
Nb9 (VHH) VHH: HVQLVESGGGLVQTGGSLRLSCAFSGYTFSTFPTAWFRQAPGKEREFVAGIRWNGGSRDYTEYADFVKGRFTISRDNAKNMIYLQMISLKPEDTALYYCAASHGVVDGTSVNGYRYWGQGTQVTVSS	1.72
Nb11 (VHH) VHH: HVQLVESGGGLVQAGGSLRLSCAVSGASAERVGWFRRAPGKEREFVAAIGANGGSTNYLDSVKGRFTISRDNAKNTVYLQMNSLKPQDTAVYYCAARNLETFDYTYWGRGTQVTVSS	0.78
Nb34 (VHH) VHH: DVQLVESGGGLVQAGGSLRLSCAASGFTFSNYVMYWGRQAPGKGREWVSGIDSDGSDTAYASSVKGRFTISRDNAKNTLYLQMNNLKPEDTALYYCVKSKDPYGSPWTRSEFDDYWGQGTQVTVSS	1.12

Okay, next one:
Ask: Requested read-out: Authentic virus PRNT IC50. Entry: Nb78 (VHH) VHH: QVQLVESGGGLVQAGGSLRLSCAISGASANRVGWFRRAPGKEREFVAAIGASGGMTNYLDSVKGRFTISRDNAKNTVYLQMNSLKPQDTAVYYCAARNIETAEYTYWGQGTQVTVSS
Result: 0.766
